Molecular target: T1, human GIP receptor (human, UniProt P48546 22-466)
T1 sequence (looked up): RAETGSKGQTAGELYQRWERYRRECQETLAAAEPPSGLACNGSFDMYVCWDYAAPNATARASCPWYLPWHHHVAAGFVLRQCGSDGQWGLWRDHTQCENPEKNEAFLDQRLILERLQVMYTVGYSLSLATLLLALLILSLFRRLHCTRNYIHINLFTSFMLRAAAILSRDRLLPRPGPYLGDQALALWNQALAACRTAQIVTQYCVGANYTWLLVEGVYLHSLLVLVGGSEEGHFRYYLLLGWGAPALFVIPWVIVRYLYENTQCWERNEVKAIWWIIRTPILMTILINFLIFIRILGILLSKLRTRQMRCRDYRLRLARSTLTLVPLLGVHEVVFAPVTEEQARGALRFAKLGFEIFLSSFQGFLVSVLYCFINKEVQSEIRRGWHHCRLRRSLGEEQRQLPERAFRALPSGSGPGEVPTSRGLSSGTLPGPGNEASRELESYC
Test: cell-based or functional assay
*1 amine or outer side, *2 acyl side, *3 side chain or, on linkers, in order; H or OH if unused. Where no end group is shown, it is not given here. Side-chain parts run from the residue outwards. [ ]: non-standard residue; d: D form. The star is where a group is joined. C18 diacid = O=C(O)CCCCCCCCCCCCCCCCC(=O)*; C16 diacid = O=C(O)CCCCCCCCCCCCCCC(=O)*; γGlu = O=C(O)[C@H](CCC(=O)[*:2])N[*:1]; pGlu = O=C1CC[C@@H](C(=O)O)N1; AEEA = NCCOCCOCC(=O)O
Mark t only when DiscoveRx cAMP antagonism IC50 stays strictly below 10 nM. Values equal to the cut-off are f.

{"binder": "EGTFISDYSIAMDRIK([AEEA-AEEA-AEEA-γGlu-C16 diacid])QQDFVNWLLAQR-NH2 (not fully specified (residue 1)) [AT375]", "category": "f"}
{"binder": "[pGlu]GTFISDYSIAMDRIK([AEEA-AEEA-γGlu-C16 diacid])QQDFVNWLLAQR-NH2 [AT379]", "category": "t"}
{"binder": "[pGlu]GTFISDYSIAMDRIK(C16 diacid)QQDFVNWLLAQR-NH2 [AT390]", "category": "t"}

Task: Please determine if EGTFISDYSIAMDRIK([AEEA-AEEA-AEEA-γGlu-C18 diacid])QQDFVNWLLAQR-NH2 (not fully specified (residue 1)) [AT378] is below 10 nM in terms of DiscoveRx cAMP antagonism IC50.
Output: f
